Where do these numbers come from? They come from patent US11434205B2.

A set of compounds tested on rats, with measured Approximate therapeutic index:

// known answers, use as guide
[2H]C#CC(C)(C)OC(=O)c1cncn1[C@H](C)c1ccccc1 [Compound D16] ... >12
C[C@H](c1ccccc1)n1cncc1C(=O)OCC1(C)COC1 [Compound B5] ... >11
C=C=CC1(OC(=O)c2c(F)ncn2[C@H](C)c2ccccc2)CCCCC1 [Compound E36] ... >26
CC#CC1(OC(=O)c2cncn2[C@H](C)c2ccccc2)CCCCC1 [Compound D40] ... >16
CCOC(=O)c1c(Cl)nc(Cl)n1[C@H](C)c1ccccc1 [Compound E129] ... >30

Prompt: GET /values?readout=Approximate therapeutic index&system=rats&item= C#CC(C)(C)OC(=O)c1cncn1[C@H](C)c1ccccc1 [Compound D15]
Response: >10

Prompt: Under rats: Approximate therapeutic index value of CSCCOC(=O)c1cncn1[C@H](C)c1ccccc1 [Compound C27] ?
Response: >11

Prompt: Please tell me: Approximate therapeutic index of C[C@H](c1ccccc1)n1cncc1C(=O)OC1(C)CCC1=O (stereo partly shown) [Compound A13] , system rats?
Response: >10

Prompt: API: value(readout= Approximate therapeutic index, system= rats, query= CC(=O)C1(OC(=O)c2cncn2[C@H](C)c2ccccc2)CC1 [Compound C1] )
Response: >90

Prompt: Query for rats: what Approximate therapeutic index does the record show for CC(=O)CCOC(=O)c1cncn1[C@H](C)c1ccccc1 [Compound C7] ?
Response: >10

Prompt: Entry C/C=C/C1(OC(=O)c2cncn2[C@H](C)c2ccccc2)COC1 [Compound D42] , system rats: what Approximate therapeutic index was measured?
Response: >12

Prompt: Find Approximate therapeutic index (rats) for the entry C=C=CC(C)(C)OC(=O)c1c(F)ncn1[C@H](C)c1ccccc1 [Compound E19]
Response: >40

Prompt: Give rats Approximate therapeutic index for C=C=CC1(OC(=O)c2cncn2[C@H](C)c2ccccc2)CCCCC1 [Compound D43]
Response: >13

Prompt: What reported Approximate therapeutic index corresponds to C=C=CC1(OC(=O)c2cncn2[C@H](C)c2ccccc2)CCC1 [Compound D13] on rats?
Response: >12

Prompt: What reported Approximate therapeutic index corresponds to CCC1(COC(=O)c2cncn2[C@H](C)c2ccccc2)COC1 [Compound B9] on rats?
Response: >12

---

Tested on: rats
Test: Pharmacological characteristics at equivalent doses (2×ED50) in rats
Conditions: 2×ED50, tail vein, animals affected/animals
measured_attribute: Adverse reactions: Tremor (incidence)

Example results:
CCCC1(OC(=O)c2cncn2[C@H](C)c2ccccc2)COC1 ... 2/8
C=CC(C)(C)OC(=O)c1c(F)ncn1[C@H](C)c1ccccc1 ... (3/8), Red
C=C=CC(C)(C)OC(=O)c1c(F)ncn1[C@H](C)c1ccccc1 ... (3/8), Red
CC#CC1(OC(=O)c2c(F)ncn2[C@H](C)c2ccccc2)COC1 ... (2/8), Red
C=C=CC(CC)OC(=O)c1c(F)ncn1[C@H](C)c1ccccc1 (stereo partly shown) ... (2/8), Red

Prompt: So what's the measured Adverse reactions: Tremor (incidence) for this one? `CC(=O)C(C)(C)OC(=O)c1c(F)ncn1[C@H](C)c1ccccc1`
Response: (1/8), Red

Prompt: For `C=C=CC1(OC(=O)c2c(F)ncn2[C@H](C)c2ccccc2)CCC1` , what is its reported Adverse reactions: Tremor (incidence)?
Response: (2/8), Red

Prompt: I have this compound here, `CCOC(=O)c1c(Cl)ncn1[C@H](C)c1ccccc1` , and I need its recorded Adverse reactions: Tremor (incidence).
Response: (5/8), Red
